Every entry's value here was drawn from patent US7678818B2.

target: cholesteryl ester transfer protein (CETP) from human lipoprotein-deprived serum (LPDS) (Homo sapiens); construct: the source of CETP was human lipoprotein-deprived serum (LPDS); experiment: CETP inhibition in the presence of plasma (SPA assay, CETP source human lipoprotein-deprived serum)
Sequence (P11597 18-493): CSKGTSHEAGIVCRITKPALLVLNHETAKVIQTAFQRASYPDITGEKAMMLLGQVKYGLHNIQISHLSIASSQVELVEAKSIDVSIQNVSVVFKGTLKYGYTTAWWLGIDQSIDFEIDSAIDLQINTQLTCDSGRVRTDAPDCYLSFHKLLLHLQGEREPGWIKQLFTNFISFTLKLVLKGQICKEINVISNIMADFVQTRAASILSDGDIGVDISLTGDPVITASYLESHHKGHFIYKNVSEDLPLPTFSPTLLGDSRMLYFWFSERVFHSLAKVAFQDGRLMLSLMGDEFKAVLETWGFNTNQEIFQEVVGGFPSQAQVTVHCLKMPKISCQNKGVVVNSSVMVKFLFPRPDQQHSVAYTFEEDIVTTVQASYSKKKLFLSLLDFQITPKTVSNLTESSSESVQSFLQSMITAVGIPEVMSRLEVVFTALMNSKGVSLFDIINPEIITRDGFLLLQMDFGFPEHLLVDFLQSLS
pIC50: −log10 of the molar value.
PROPERTY_NAME: pIC50

CNc1c(Cl)ccc(F)c1C(=O)N(CCc1cccc(C(F)(F)F)c1)Cc1ccc(C(C)(C)C)cc1 [Compound 13.254]; 6.53

A: CCC(=O)Nc1ccc(Cl)c(Cl)c1C(=O)N(CCc1cccc(C(F)(F)F)c1)Cc1ccc(C(C)(C)C)cc1 [Compound 13.230]
B: CC(C)(C)c1ccc(CN(CCc2cccc(C(F)(F)F)c2)C(=O)c2cccnc2N)cc1 [Compound 13.63]
Ask: Could you check which of A and B has a smaller value for pIC50? Please respond with the label that marks your chosen entry.
Reply: B
(B: 4.52, A: 5.25)
